# TESTED SYSTEM: human CYP2D6 (Homo sapiens, UniProt P10635)
# Sequence (P10635 whole entry): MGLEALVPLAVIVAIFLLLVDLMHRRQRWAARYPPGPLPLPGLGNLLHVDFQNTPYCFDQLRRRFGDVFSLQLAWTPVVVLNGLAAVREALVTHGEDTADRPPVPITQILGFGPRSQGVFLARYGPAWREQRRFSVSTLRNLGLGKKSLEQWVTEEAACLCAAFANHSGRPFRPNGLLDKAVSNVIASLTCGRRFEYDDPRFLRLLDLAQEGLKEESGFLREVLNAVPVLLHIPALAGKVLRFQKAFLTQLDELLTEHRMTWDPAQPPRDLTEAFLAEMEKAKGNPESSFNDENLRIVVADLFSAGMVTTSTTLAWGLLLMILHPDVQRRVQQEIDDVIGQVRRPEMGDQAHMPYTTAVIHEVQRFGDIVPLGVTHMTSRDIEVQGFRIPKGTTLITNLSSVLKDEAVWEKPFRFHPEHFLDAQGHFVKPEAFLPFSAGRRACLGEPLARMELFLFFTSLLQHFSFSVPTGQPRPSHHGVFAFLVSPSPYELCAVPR
# ASSAY NAME: biochemical
# TEST CONTEXT: CYP2D6 IC50 (half-maximal inhibitory concentration)
Counter-ions that a name gives are not always drawn.
MEASURED METRIC: log10(IC50) (log10 of the value in µM)

{"MOLECULE": "Clc1ccc(C(Cn2ccnc2)OCc2ccsc2Cl)c(Cl)c1 (stereo not drawn) [Tioconazole]", "TESTED SYSTEM": "human CYP2D6 (Homo sapiens, UniProt P10635)", "MEASURED": 0.45}
{"MOLECULE": "OC(c1ccc(F)cc1)(c1cncnc1)c1ccccc1Cl (stereo not drawn) [Nuarimol]", "TESTED SYSTEM": "human CYP2D6 (Homo sapiens, UniProt P10635)", "MEASURED": 1.55}
{"MOLECULE": "O=[N+]([O-])c1cc(C(F)(F)F)c(Cl)c([N+](=O)[O-])c1Nc1ncc(C(F)(F)F)cc1Cl [Fluazinam]", "TESTED SYSTEM": "human CYP2D6 (Homo sapiens, UniProt P10635)", "MEASURED": 1.66}
{"MOLECULE": "CC(C)(C)C(O)C(Oc1ccc(Cl)cc1)n1cncn1 (stereo not drawn) [Triadimenol]", "TESTED SYSTEM": "human CYP2D6 (Homo sapiens, UniProt P10635)", "MEASURED": 1.81}
{"MOLECULE": "CCCOC/C(=N\\c1ccc(Cl)cc1C(F)(F)F)n1ccnc1 [Triflumizole]", "TESTED SYSTEM": "human CYP2D6 (Homo sapiens, UniProt P10635)", "MEASURED": 1.54}
{"MOLECULE": "CCCCOCN(C(=O)CCl)c1c(CC)cccc1CC [Butachlor]", "TESTED SYSTEM": "human CYP2D6 (Homo sapiens, UniProt P10635)", "MEASURED": 1.71}
{"MOLECULE": "Cc1ccc(Cl)c(OCC(O)CNC(C)(C)C)c1 (stereo not drawn) [Bupranolol]", "TESTED SYSTEM": "human CYP2D6 (Homo sapiens, UniProt P10635)", "MEASURED": -0.01}
{"MOLECULE": "C#CCOS(=O)OC1CCCCC1Oc1ccc(C(C)(C)C)cc1 (stereo not drawn) [Propargite]", "TESTED SYSTEM": "human CYP2D6 (Homo sapiens, UniProt P10635)", "MEASURED": 1.20}
{"MOLECULE": "CC(CN1c2ccccc2Sc2ccccc21)N(C)C (stereo not drawn) [Promethazine hydrochloride]", "TESTED SYSTEM": "human CYP2D6 (Homo sapiens, UniProt P10635)", "MEASURED": -0.05}
